Below, each of the compounds is paired with its reported Ki value.
target: 5-hydroxytryptamine receptor 2A (Rattus norvegicus, UniProt P14842); experiment: Displacement of [3H]ketanserin from 5HT2A receptor in Sprague-Dawley rat brain by liquid scintillation spectroscopy
Sequence (P14842 whole entry): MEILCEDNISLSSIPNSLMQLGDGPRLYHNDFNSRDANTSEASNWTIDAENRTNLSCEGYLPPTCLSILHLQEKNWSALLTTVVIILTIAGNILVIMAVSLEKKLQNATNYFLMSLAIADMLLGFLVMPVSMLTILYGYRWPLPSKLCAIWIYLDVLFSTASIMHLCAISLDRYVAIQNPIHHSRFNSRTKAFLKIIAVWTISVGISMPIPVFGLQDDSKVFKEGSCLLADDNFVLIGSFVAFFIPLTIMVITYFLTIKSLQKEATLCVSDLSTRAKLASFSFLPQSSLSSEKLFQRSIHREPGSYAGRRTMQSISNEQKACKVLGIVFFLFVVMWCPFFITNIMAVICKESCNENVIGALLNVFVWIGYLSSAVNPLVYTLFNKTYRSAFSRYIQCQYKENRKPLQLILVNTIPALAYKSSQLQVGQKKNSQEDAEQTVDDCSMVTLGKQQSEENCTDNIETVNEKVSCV
Please respond with the number in nM and leave the unit unwritten.

Example entries and their recorded answers appear below.
COc1cc(CC(C)N)c(OC)cc1C (racemic) | 100
COc1cc2c(cc1Br)OCCC(N)C2 (racemic) | 422
COc1cc(C(F)(F)F)c(OC)cc1CC(C)N (racemic) | 33
CSc1cc(CC(C)N)c(SC)cc1C (racemic) | 177
COc1cc(CCN)cc(OC)c1OCCc1ccccc1 | 59

Consider the compound COc1cc(CC(C)N)c(OC)cc1I (racemic) and give its measured Ki. 19

Same question for COc1cc(C)cc(OC)c1CC(C)N (racemic) please. 351
